test system: Rattus norvegicus; test: Inhibition of stress-induced ulcer formation in rats by 10 mg/kg p.o. administration.; assay type: functional; conditions: Rattus norvegicus, po
Kind request: treat 20% as inclusive, so inhibition in vivo at 10 mg/kg at 20% or higher is 1, anything lower is 0.

compound="CC(C)N(CC(=O)NC1c2ccccc2OCc2ncccc21)C(C)C (stereo unspecified)" assigned_label=0
compound="CCN(CC)CCCNC1c2ccccc2OCc2ncccc21 (stereo unspecified)" assigned_label=1
compound="CCN(CC)CCNC1c2ccccc2Oc2ncccc21 (stereo unspecified)" assigned_label=0
compound="CC1CCC(C)N1CCNC1c2ccccc2OCc2ncccc21 (stereo unspecified)" assigned_label=1
compound="CCN(CC)CC(=O)NC1c2ccccc2OCc2ncccc21 (stereo unspecified)" assigned_label=0
compound="CN1CCN(CC(=O)NC2c3ccccc3OCc3ncccc32)CC1 (stereo unspecified)" assigned_label=1
compound="CC1CC[C@H](C)N1CCNC1c2ccccc2OCc2ncccc21 (stereo partly specified)" assigned_label=1
compound="O=C(Cn1ccnc1)NC1c2ccccc2OCc2ncccc21 (stereo unspecified)" assigned_label=0
compound="CN(C)CCNC1c2ccccc2OCc2ncccc21 (stereo unspecified)" assigned_label=1
compound="CC(C)N(CCNC1c2ccccc2OCc2ncccc21)C(C)C (stereo unspecified)" assigned_label=1
compound="c1ccc2c(c1)OCc1ncccc1C2NCCN1CCOCC1 (stereo unspecified)" assigned_label=0
compound="c1ccc2c(c1)OCc1ncccc1C2NCCN1CCCC1 (stereo unspecified)" assigned_label=1

* * *

Readings of inhibition in vivo at 10 mg/kg for the listed molecules
test system: Rattus norvegicus; test: Inhibition of stress-induced ulcer formation in rats by 10 mg/kg p.o. administration.; format: functional; conditions: Rattus norvegicus, po
PROPERTY MEASURED: inhibition in vivo at 10 mg/kg

molecule="CCN(CC)CCNC1c2ccccc2OCc2ncccc21 (single isomer, unassigned; (+))" property_measured="inhibition in vivo at 10 mg/kg" reported_value="< 63%"
molecule="CN1CCN(CC(=O)N2c3ccccc3C(=O)Nc3cccnc32)CC1 [PIRENZEPINE]" property_measured="inhibition in vivo at 10 mg/kg" reported_value="< 67%"
molecule="CCN(CC)CCNC1c2cc(F)ccc2OCc2ncccc21 (centres undefined)" property_measured="inhibition in vivo at 10 mg/kg" reported_value="< 53%"
molecule="CCN(CC)CCNC1c2cccnc2COc2c(C)cccc21 (centres undefined)" property_measured="inhibition in vivo at 10 mg/kg" reported_value="< 36%"
